Value source: ChEMBL document CHEMBL1136557

Each entry below carries its measured pIC50, system: Estrogen receptor beta (Homo sapiens).
Sequence (Q92731 whole entry): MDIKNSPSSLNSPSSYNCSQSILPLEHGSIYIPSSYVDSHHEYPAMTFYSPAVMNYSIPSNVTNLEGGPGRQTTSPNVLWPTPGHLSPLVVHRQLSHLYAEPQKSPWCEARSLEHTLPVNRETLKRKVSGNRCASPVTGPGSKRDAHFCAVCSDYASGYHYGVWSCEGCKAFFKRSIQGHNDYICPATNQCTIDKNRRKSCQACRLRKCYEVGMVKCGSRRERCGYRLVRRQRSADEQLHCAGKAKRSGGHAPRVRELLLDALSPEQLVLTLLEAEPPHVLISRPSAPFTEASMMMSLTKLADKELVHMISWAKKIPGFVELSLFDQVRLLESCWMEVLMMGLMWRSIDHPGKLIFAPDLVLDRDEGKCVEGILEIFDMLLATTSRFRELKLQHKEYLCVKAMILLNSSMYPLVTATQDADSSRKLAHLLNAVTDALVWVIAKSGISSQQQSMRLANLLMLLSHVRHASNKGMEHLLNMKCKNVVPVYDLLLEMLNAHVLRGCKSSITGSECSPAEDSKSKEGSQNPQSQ
Scale: negative log10 of molar concentration, which is what pIC50 denotes.

Known results for compounds:
In [3]: df
Out[3]:
                                   compound  readout_label  meas_value
0  Oc1ccc2c(c1)CC1(C2)C(c2ccccc2)=Cc2ccccc21 (stereo not given)          pIC50        6.37
1  CC1=C(c2ccc(O)cc2)C2(Cc3ccccc3C2)c2ccc(O)cc21          pIC50        8.23
2  Oc1ccc(C2=Cc3cc(O)ccc3C23Cc2ccc(OCCN4CCCCC4)cc2C3)cc1 (stereo not given)          pIC50        8.72

### Prompt Give the value of pIC50 reported for the following: Oc1cccc(C2=Cc3ccc(O)cc3C23Cc2ccccc2C3)c1
### Response 7.92

### Prompt Give reported pIC50 value for Oc1cccc(C2=Cc3cc(O)ccc3C23Cc2ccccc2C3)c1
### Response 7.64

---

The listing below reports pIC50 for molecules tested on Estrogen receptor (Homo sapiens, UniProt P03372).
Sequence (P03372 whole entry): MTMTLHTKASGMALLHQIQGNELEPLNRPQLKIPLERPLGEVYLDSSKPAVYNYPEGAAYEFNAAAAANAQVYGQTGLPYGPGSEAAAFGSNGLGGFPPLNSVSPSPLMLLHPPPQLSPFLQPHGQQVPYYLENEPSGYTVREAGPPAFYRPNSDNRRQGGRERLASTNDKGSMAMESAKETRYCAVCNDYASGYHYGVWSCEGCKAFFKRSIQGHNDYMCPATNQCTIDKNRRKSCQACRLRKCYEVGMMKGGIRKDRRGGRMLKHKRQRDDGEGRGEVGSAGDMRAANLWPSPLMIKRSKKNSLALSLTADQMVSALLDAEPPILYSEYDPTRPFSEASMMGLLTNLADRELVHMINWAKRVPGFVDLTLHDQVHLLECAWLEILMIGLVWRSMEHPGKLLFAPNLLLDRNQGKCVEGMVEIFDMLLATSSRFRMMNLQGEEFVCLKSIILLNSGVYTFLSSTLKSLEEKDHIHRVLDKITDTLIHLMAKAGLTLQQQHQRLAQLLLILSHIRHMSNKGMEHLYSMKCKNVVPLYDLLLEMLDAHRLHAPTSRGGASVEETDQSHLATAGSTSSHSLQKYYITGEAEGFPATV
Interpret pIC50 as the negative base-10 log of the concentration measured in mol/L.

Reference set, count: 3
                                   molecule  readout_label  meas_value
0  Oc1ccc(C2=Cc3cc(O)ccc3C23Cc2ccc(OCCN4CCCCC4)cc2C3)cc1 (stereo not given)          pIC50        9.00
1  Oc1cccc(C2=Cc3cc(O)ccc3C23Cc2ccccc2C3)c1          pIC50        7.55
2  CC1=C(c2ccc(O)cc2)C2(Cc3ccccc3C2)c2ccc(O)cc21          pIC50        7.72

### Prompt Give reported pIC50 for Oc1ccc2c(c1)CC1(C2)C(c2ccccc2)=Cc2ccccc21 (stereo not given) (Estrogen receptor (Homo sapiens, UniProt P03372))
### Response 7.24

---

This section lists pIC50 readings for Estrogen receptor beta (Rattus norvegicus).
# log scale: pIC50 equals minus log10 of the concentration in mol/L

                                   compound  meas_value
0  CC1=C(c2ccc(O)cc2)C2(Cc3ccccc3C2)c2ccc(O)cc21        8.92
1  Oc1cccc(C2=Cc3cc(O)ccc3C23Cc2ccccc2C3)c1        7.54
2  Oc1ccc(C2=Cc3cc(O)ccc3C23Cc2ccccc2C3)cc1        8.96
3  Oc1cccc(C2=Cc3ccc(O)cc3C23Cc2ccccc2C3)c1        7.82
4  Oc1ccc(C2=Cc3cc(O)ccc3C23Cc2ccc(OCCN4CCCCC4)cc2C3)cc1 (stereo unspecified)        8.57

### Prompt System Estrogen receptor beta (Rattus norvegicus). Read-out pIC50. Item Oc1ccc2c(c1)CC1(C2)C(c2ccccc2)=Cc2ccccc21 (stereo unspecified) . Report value.
### Response 5.97

---

Reported values: pIC50 for UniProt P06211, one per item.
Sequence (P06211 whole entry): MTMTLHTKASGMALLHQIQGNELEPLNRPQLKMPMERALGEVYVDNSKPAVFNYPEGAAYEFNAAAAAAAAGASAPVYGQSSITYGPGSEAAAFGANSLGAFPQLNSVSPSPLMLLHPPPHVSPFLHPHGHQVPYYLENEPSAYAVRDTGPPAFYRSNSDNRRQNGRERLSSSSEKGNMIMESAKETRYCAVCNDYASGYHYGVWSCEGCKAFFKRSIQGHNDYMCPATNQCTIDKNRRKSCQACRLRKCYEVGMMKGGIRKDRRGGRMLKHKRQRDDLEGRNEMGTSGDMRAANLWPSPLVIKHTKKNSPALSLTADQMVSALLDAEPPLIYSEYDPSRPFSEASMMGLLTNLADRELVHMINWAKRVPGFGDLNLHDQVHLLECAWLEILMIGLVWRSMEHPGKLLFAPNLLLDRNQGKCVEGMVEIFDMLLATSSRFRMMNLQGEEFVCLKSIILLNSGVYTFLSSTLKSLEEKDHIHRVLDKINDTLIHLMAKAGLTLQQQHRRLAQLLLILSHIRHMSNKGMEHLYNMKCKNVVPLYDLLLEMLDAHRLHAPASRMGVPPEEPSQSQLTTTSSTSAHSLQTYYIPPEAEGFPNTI
pIC50 (log units): -log10 of the concentration in mol/L.

Consider the following illustrative entries.
>>> df
                                   compound  meas_value
0  CC1=C(c2ccc(O)cc2)C2(Cc3ccccc3C2)c2ccc(O)cc21        8.66
1  Oc1cccc(C2=Cc3ccc(O)cc3C23Cc2ccccc2C3)c1        7.80

### Prompt Give the reported pIC50 for this compound. Oc1ccc(C2=Cc3cc(O)ccc3C23Cc2ccc(OCCN4CCCCC4)cc2C3)cc1 (centres undefined)
### Response 8.77
